# system: Dipeptidyl peptidase 4 (Homo sapiens, UniProt P27487)
# Sequence (P27487 whole entry): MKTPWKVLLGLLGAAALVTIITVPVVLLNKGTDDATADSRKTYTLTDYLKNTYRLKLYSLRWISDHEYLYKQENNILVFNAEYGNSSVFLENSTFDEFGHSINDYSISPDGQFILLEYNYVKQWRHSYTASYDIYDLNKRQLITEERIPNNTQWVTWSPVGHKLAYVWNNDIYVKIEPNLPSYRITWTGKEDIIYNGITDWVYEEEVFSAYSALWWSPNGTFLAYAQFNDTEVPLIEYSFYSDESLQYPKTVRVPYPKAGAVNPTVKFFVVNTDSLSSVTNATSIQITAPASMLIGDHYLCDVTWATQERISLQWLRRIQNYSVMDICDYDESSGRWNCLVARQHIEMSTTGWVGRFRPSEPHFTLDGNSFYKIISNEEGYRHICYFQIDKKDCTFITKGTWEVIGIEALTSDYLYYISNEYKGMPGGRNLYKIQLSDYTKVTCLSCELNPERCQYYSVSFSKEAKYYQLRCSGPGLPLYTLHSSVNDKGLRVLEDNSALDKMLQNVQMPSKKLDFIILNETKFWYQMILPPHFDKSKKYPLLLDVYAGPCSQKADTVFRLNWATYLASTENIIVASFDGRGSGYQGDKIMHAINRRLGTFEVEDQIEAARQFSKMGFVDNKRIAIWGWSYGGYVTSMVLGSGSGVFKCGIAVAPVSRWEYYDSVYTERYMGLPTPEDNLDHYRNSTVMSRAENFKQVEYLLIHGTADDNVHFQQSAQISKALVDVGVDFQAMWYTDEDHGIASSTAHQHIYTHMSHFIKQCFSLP
# run description: Inhibitory activity against Dipeptidylpeptidase IV (DPP IV) in human acute lymphoblastic leukemia MOLT-4 cell line
As shown below, each of these molecules has a reported IC50 value.

Example entries begin here.
[
  {
    "structure as smiles": "Cc1cccc(C)c1N1C(=O)c2cccc(N)c2C1=O",
    "system": "Dipeptidyl peptidase 4 (Homo sapiens, UniProt P27487)",
    "observed measurement": "60.1 µM"
  },
  {
    "structure as smiles": "Cc1cccc(C)c1N1C(=O)c2ccccc2C1=O",
    "system": "Dipeptidyl peptidase 4 (Homo sapiens, UniProt P27487)",
    "observed measurement": "> 398 µM"
  }
]

Asked: What measured IC50 goes with Cc1cccc(C)c1N1C(=O)c2ccc([N+](=O)[O-])cc2C1=O ?
Given back: > 338 µM

Asked: Try CC(C)c1cccc(C(C)C)c1N1C(=O)c2ccc([N+](=O)[O-])cc2C1=O next.
Given back: > 284 µM

Asked: Try Cc1cccc(C)c1N1C(=O)c2cccc(O)c2C1=O next.
Given back: > 374 µM

Asked: Try CC(C)c1cccc(C(C)C)c1N1C(=O)c2ccccc2C1=O next.
Given back: > 325 µM

Asked: Try CCc1cccc(CC)c1N1C(=O)c2cccc(O)c2C1=O next.
Given back: 43.3 µM

Asked: Try Cc1cccc(C)c1N1C(=O)c2cccc([N+](=O)[O-])c2C1=O next.
Given back: > 338 µM
